- TESTED ON: Voltage-gated potassium channel subunit beta-2 (Rattus norvegicus)
- RUN DESCRIPTION: KvBeta positive modulators, primary screen, biochemical, NADPH fluorescence (AID 623);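 note: fluorescence intensity change per second fitted from 20 to 320 s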
- TEST SETTINGS: Recombinant KvBeta, NADPH fluorescence decrease slope, 10 min; at 10 µM; hits give low values
Listing of recorded NADPH fluorescence slope by entry.
Lab note: record just the number, no unit beside it.

Previously resolved entries follow.
COMPOUND	NADPH fluorescence slope
c1cncc(-c2nnc3sc(C4CCCCC4)nn23)c1	1.1e-05
COc1cccc(C2C(C(=O)c3cccs3)=C(O)C(=O)N2c2cc(C)on2)c1 (configuration not stated)	-0.000129
O=C(CCNNC(=O)c1ccncc1)NCc1ccccc1	-7.6e-05
O=C(O)c1cc(O)c2c(c1)C(=O)c1cccc(O)c1C2=O	-1.3e-05
COC(=O)CSc1nnc2n(-c3ccc(OC)cc3)c(=O)c3c4c(sc3n12)CCCCC4	-4.4e-05

[ask] What value of measured NADPH fluorescence slope is listed for CCCCN(CCCC)CCCOC(=O)c1ccc(N)cc1 ?
[reply] -5.7e-05
